Origin of the recorded values: ChEMBL document CHEMBL1681703

System: MCF7
Test: Antiproliferative activity against human MCF7 cells assessed as inhibition of 100 ng/ml IGF-driven mitogenesis after 4 hrs by [3H]-thymidine incorporation assay
Type: functional, cell-based
pIC50 values, listed per item
Please express pIC50 as -log10 of the molar concentration.

Worked set:
• CC[C@@H](C)C[C@H](C)/C=C/CC[C@@H](O)[C@@H](Cc1ccc(O)cc1)NC [TYROSCHERIN 5] = 5.71
• CC[C@H](C)C[C@@H](C)/C=C/CC[C@H](O)[C@@H](Cc1ccc(O)cc1)NC [TYROSCHERIN 15] = 5.54
• CC[C@@H](C)C[C@H](C)/C=C/CC[C@H](O)[C@H](Cc1ccc(O)cc1)NC [TYROSCHERIN 9] = 5.50
• CC[C@@H](C)C[C@@H](C)/C=C/CC[C@H](O)[C@@H](Cc1ccc(O)cc1)NC [TYROSCHERIN 7] = 5.63
• CC[C@H](C)C[C@H](C)/C=C/CC[C@H](O)[C@H](Cc1ccc(O)cc1)NC [TTYROSCHERIN 3] = 5.74

Query: Recorded pIC50 for CN[C@H](Cc1ccc(O)cc1)[C@H](O)CC/C=C/[C@@H](C)C[C@@H](C)CO , please?
Response: 4.12
